Biological target: human glucagon receptor (human) (UniProt P47871)
Sequence (P47871 26-477): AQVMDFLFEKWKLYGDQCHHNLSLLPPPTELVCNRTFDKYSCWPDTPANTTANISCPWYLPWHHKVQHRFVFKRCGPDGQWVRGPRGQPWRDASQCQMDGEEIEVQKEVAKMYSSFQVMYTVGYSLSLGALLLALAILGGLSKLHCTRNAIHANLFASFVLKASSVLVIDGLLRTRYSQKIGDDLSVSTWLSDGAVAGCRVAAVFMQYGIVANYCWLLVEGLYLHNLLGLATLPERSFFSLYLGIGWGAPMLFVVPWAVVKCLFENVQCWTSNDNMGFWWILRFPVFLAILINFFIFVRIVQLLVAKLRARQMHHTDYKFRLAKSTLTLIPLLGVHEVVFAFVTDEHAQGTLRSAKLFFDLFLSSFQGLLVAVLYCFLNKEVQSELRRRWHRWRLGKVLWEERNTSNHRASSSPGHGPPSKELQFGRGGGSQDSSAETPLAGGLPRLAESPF
Test: cell-based or functional assay
measured-quantity: Relative cAMP EC50, nM (0.1% casein) (nM)
// return numeric value only (unit: nM, not printed)

**Q:** Retrieve Relative cAMP EC50, nM (0.1% casein) measured for YXQGTFTSDFSXXLDKKAQXAFIEYLLEGGXSSGAPPPGGS (non-natural residues; lysine acylated with AEEA linker C18 diacid; C-amide; synthetic construct; SITE 2: note = 2-Aminoisobutyric Acid; SITE 12: note = L-ornithine; SITE 13: note = alpha-methyl-leucine; SITE 17: note = Lysine is chemically modified through conjugation of the epsilon-amino group of the Lysine side chain with (2-[2-(2-Amino-ethoxy)-ethoxy]-acetyl)-(gamma-Glu)) [Example 163] and print it.
**A:** 5.6

**Q:** Retrieve Relative cAMP EC50, nM (0.1% casein) measured for YXQGTXTSDXXIXLDXKAQXXFIEXLIEGGPSSGEPEPSEG (synthetic construct; SITE 2: note = 2-Aminoisobutyric Acid; SITE 6: note = alpha-methyl-2-fluoro-L-phenylalanine; SITE 10: note = 3-(4-Pyridyl)-L-alanine; SITE 11: note = alpha-methyl-L-serine; SITE 13: note = alpha-methyl-leucine; SITE 16: note = L-ornithine; SITE 17: note = Lysine is chemically mo) [Example 481] and print it.
**A:** 1.22

**Q:** Retrieve Relative cAMP EC50, nM (0.1% casein) measured for YXQGTFTSDFSQXLDKKAQXAFIEYLLEXGPSSGAPPPSGS (Lys acylated with AEEA-γGlu-C18 diacid; non-natural residues; C-amide; synthetic construct; SITE 2: note = 2-Aminoisobutyric Acid; SITE 13: note = alpha-methyl-leucine; SITE 17: note = Lysine is chemically modified through conjugation of the epsilon-amino group of the Lysine side chain with (2-[2-(2-Amino-ethoxy)-ethoxy]-acetyl)-(gamma-Glu)-CO-(CH2) 16-CO2H; SITE 20: n) [Example 151] and print it.
**A:** 3.5

**Q:** Retrieve Relative cAMP EC50, nM (0.1% casein) measured for YXQGTFTSDFSKXLDKKAQXAFIEYLLEGGESSGAPPPSGS (Aib, αMeL, (AEEA)2-γGlu-C18 diacid lysine acylation, C-terminal amide; synthetic construct; SITE 2: note = 2-Aminoisobutyric Acid; SITE 13: note = alpha-methyl-leucine; SITE 17: note = Lysine is chemically modified through conjugation of the epsilon-amino group of the Lysine side chain with (2-[2-(2-Amino-ethoxy)-ethoxy]-acetyl)2-(gamma-Glu)-CO-(CH2 )16-CO2H; SITE 20:) [Example 147] and print it.
**A:** 4.39

**Q:** Retrieve Relative cAMP EC50, nM (0.1% casein) measured for YXQGTFTSDFSXXLDKKAQXAFIEYLLAGGPSSGEPPPEGS (Aib, Orn, αMeL; acylated Lys (AEEA-γGlu-C18 diacid); C-terminal amide; synthetic construct; SITE 2: note = 2-Aminoisobutyric Acid; SITE 12: note = L-ornithine; SITE 13: note = alpha-methyl-leucine; SITE 17: note = Lysine is chemically modified through conjugation of the epsilon-amino group of the Lysine side chain with (2-[2-(2-Amino-ethoxy)-ethoxy]-acetyl)-(gamma-Glu)) [Example 152] and print it.
**A:** 6.91

**Q:** Retrieve Relative cAMP EC50, nM (0.1% casein) measured for YXQGTFTSDFSXXLDKKAQXAFIEWLLEGGHSSGAPPPSGE (acylated Lys, C-terminal amide, non-natural residues; synthetic construct; SITE 2: note = 2-Aminoisobutyric Acid; SITE 12: note = L-ornithine; SITE 13: note = alpha-methyl-leucine; SITE 17: note = Lysine is chemically modified through conjugation of the epsilon-amino group of the Lysine side chain with (2-[2-(2-Amino-ethoxy)-ethoxy]-acetyl)2-(gamma-Glu)) [Example 169] and print it.
**A:** 11.7
